target: human TAS1R2-C9S/TAS1R3-WT (Homo sapiens, UniProt Q7RTX0+Q8TE23); assay: Calcium mobilisation assay, TAS1R2 variant C9S with TAS1R3-WT
VALUE_TYPE: pEC50
Give bare numbers, as −log10 of the molar value.

compound="CC1=CC(=O)NS(=O)(=O)O1 [Acesulfame K, acesulfame K]" assayed_system="human TAS1R2-C9S/TAS1R3-WT (Homo sapiens, UniProt Q7RTX0+Q8TE23)" result_number=3.33
compound="COC(=O)[C@H](Cc1ccccc1)NC(=O)[C@H](CC(=O)O)NCCC(C)(C)C [Neotame]" assayed_system="human TAS1R2-C9S/TAS1R3-WT (Homo sapiens, UniProt Q7RTX0+Q8TE23)" result_number=6.07
compound="O=S(=O)(O)NC1CCCCC1 [Cyclamate, cyclamate]" assayed_system="human TAS1R2-C9S/TAS1R3-WT (Homo sapiens, UniProt Q7RTX0+Q8TE23)" result_number=2.74
compound="C=C(C)[C@@H]1CC=C(/C=N/O)CC1 [Perillartine, perillartine]" assayed_system="human TAS1R2-C9S/TAS1R3-WT (Homo sapiens, UniProt Q7RTX0+Q8TE23)" result_number=4.75
compound="COc1ccc(CCC(=O)c2c(O)cc(O[C@@H]3O[C@H](CO)[C@@H](O)[C@H](O)[C@H]3O[C@@H]3O[C@@H](C)[C@H](O)[C@@H](O)[C@H]3O)cc2O)cc1O [NHDC, neohesperidin dihydrochalcone]" assayed_system="human TAS1R2-C9S/TAS1R3-WT (Homo sapiens, UniProt Q7RTX0+Q8TE23)" result_number=4.00
compound="C[C@H](CC[C@@H](O[C@@H]1O[C@H](CO[C@@H]2O[C@H](CO)[C@@H](O)[C@H](O)[C@H]2O)[C@@H](O)[C@H](O)[C@H]1O[C@@H]1O[C@H](CO)[C@@H](O)[C@H](O)[C@H]1O)C(C)(C)O)[C@H]1CC[C@@]2(C)[C@@H]3CC=C4[C@@H](CC[C@H](O[C@@H]5O[C@H](CO[C@@H]6O[C@H](CO)[C@@H](O)[C@H](O)[C@H]6O)[C@@H](O)[C@H](O)[C@H]5O)C4(C)C)[C@]3(C)[C@H](O)C[C@]12C [Mogroside V, mogroside V]" assayed_system="human TAS1R2-C9S/TAS1R3-WT (Homo sapiens, UniProt Q7RTX0+Q8TE23)" result_number=4.73

Would you mind listing pEC50 for each of the following compounds?
1. C=C1C[C@@]23CC[C@H]4[C@@](C)(CCC[C@@]4(C)C(=O)O[C@@H]4O[C@H](CO)[C@@H](O)[C@H](O[C@@H]5O[C@H](CO)[C@@H](O)[C@H](O)[C@H]5O)[C@H]4O[C@@H]4O[C@H](CO)[C@@H](O)[C@H](O)[C@H]4O)[C@@H]2CC[C@]1(O[C@@H]1O[C@H](CO)[C@@H](O)[C@H](O[C@@H]2O[C@H](CO)[C@@H](O)[C@H](O)[C@H]2O)[C@H]1O[C@@H]1O[C@H](CO)[C@@H](O)[C@H](O)[C@H]1O)C3 [Rebaudioside M, rebaudioside M]
2. OC[C@H]1O[C@H](O[C@]2(CCl)O[C@H](CCl)[C@@H](O)[C@@H]2O)[C@H](O)[C@@H](O)[C@H]1Cl [Sucralose]

**Result**
[4.63, 4.06]

----------
Kindly state EC50 for each of the entries shown.
Molecular target: human TAS1R2-R317G/TAS1R3-WT (Homo sapiens, UniProt Q7RTX0+Q8TE23, R317G)
Sequence (Q8TE23 20-839 R317G): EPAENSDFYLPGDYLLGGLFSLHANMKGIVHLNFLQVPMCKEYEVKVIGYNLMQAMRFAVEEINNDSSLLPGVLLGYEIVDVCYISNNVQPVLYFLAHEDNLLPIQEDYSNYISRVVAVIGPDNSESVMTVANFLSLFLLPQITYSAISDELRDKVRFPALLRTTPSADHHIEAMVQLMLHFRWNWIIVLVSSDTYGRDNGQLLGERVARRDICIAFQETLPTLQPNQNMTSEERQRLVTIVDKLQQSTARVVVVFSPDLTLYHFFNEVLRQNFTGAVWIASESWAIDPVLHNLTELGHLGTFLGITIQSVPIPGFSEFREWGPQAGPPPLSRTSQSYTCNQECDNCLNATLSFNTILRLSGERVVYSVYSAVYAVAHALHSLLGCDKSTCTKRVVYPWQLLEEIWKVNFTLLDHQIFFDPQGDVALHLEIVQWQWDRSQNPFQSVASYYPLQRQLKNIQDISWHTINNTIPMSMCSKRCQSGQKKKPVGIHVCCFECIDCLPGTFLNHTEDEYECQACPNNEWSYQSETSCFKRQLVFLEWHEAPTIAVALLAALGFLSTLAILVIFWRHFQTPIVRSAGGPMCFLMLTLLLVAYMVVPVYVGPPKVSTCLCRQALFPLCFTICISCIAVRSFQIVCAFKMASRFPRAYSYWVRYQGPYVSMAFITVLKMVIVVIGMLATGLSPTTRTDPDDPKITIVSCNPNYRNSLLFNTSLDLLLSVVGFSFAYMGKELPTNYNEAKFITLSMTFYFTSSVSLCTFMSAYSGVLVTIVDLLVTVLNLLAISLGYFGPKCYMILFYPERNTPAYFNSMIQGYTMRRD
Sequence (Q7RTX0 21-852): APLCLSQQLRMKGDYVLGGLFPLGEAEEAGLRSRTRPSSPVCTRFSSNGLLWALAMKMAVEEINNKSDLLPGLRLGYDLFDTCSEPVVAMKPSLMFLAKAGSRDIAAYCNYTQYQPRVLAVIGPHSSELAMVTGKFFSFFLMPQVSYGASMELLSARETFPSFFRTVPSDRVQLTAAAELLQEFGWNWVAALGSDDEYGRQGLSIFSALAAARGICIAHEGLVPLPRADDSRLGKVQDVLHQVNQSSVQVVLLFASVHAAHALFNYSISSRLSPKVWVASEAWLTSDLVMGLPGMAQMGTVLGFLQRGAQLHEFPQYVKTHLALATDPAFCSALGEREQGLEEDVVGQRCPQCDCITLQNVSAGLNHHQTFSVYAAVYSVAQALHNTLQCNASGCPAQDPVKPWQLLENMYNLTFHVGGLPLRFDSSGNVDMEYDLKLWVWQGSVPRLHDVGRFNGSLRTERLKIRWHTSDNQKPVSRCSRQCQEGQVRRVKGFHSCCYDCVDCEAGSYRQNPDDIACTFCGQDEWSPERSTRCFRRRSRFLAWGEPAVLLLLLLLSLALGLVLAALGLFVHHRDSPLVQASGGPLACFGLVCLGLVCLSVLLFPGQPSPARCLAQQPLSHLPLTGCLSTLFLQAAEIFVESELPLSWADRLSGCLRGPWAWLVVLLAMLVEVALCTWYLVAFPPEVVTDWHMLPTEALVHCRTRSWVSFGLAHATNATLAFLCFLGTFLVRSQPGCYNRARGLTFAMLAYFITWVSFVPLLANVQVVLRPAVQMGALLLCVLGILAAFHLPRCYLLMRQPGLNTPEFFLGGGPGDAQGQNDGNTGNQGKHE
Assay: Calcium mobilisation assay, TAS1R2 variant R317G with TAS1R3-WT
Your answer should be a number followed by the unit of measure.

Below: 7 compounds and their reported EC50.
compound="C[C@H](CC[C@@H](O[C@@H]1O[C@H](CO[C@@H]2O[C@H](CO)[C@@H](O)[C@H](O)[C@H]2O)[C@@H](O)[C@H](O)[C@H]1O[C@@H]1O[C@H](CO)[C@@H](O)[C@H](O)[C@H]1O)C(C)(C)O)[C@H]1CC[C@@]2(C)[C@@H]3CC=C4[C@@H](CC[C@H](O[C@@H]5O[C@H](CO[C@@H]6O[C@H](CO)[C@@H](O)[C@H](O)[C@H]6O)[C@@H](O)[C@H](O)[C@H]5O)C4(C)C)[C@]3(C)[C@H](O)C[C@]12C [Mogroside V, mogroside V]" result="18.4 µM"
compound=CC1=CC(=O)NS(=O)(=O)O1 result="465 µM"
compound="COc1ccc(CCC(=O)c2c(O)cc(O[C@@H]3O[C@H](CO)[C@@H](O)[C@H](O)[C@H]3O[C@@H]3O[C@@H](C)[C@H](O)[C@@H](O)[C@H]3O)cc2O)cc1O [NHDC, neohesperidin dihydrochalcone]" result="97.1 µM"
compound="O=S(=O)(O)NC1CCCCC1 [Cyclamate, cyclamate]" result="2160 µM"
compound="C=C1C[C@@]23CC[C@H]4[C@@](C)(CCC[C@@]4(C)C(=O)O[C@@H]4O[C@H](CO)[C@@H](O)[C@H](O[C@@H]5O[C@H](CO)[C@@H](O)[C@H](O)[C@H]5O)[C@H]4O[C@@H]4O[C@H](CO)[C@@H](O)[C@H](O)[C@H]4O)[C@@H]2CC[C@]1(O[C@@H]1O[C@H](CO)[C@@H](O)[C@H](O[C@@H]2O[C@H](CO)[C@@H](O)[C@H](O)[C@H]2O)[C@H]1O[C@@H]1O[C@H](CO)[C@@H](O)[C@H](O)[C@H]1O)C3 [Rebaudioside M, rebaudioside M]" result="20.4 µM"
compound=COC(=O)[C@H](Cc1ccccc1)NC(=O)[C@H](CC(=O)O)NCCC(C)(C)C result="0.73 µM"
compound=OC[C@H]1O[C@H](O[C@]2(CCl)O[C@H](CCl)[C@@H](O)[C@@H]2O)[C@H](O)[C@@H](O)[C@H]1Cl result="62 µM"

**Query** For `C=C(C)[C@@H]1CC=C(/C=N/O)CC1` , write its EC50.
**Result** 20.7 µM
